molecular target: furin, P09958; experiment: furin cleavage Z-score vs untreated control; higher = more cleavage, active = 3.5 or more, inactive = 1 or less, 8 variable residues between constant flanks; conditions: 7.5 min;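 note: purified furin at 1:10 enzyme:substrate in 50 mM HEPES pH 7.5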
Sequence (P09958 whole entry): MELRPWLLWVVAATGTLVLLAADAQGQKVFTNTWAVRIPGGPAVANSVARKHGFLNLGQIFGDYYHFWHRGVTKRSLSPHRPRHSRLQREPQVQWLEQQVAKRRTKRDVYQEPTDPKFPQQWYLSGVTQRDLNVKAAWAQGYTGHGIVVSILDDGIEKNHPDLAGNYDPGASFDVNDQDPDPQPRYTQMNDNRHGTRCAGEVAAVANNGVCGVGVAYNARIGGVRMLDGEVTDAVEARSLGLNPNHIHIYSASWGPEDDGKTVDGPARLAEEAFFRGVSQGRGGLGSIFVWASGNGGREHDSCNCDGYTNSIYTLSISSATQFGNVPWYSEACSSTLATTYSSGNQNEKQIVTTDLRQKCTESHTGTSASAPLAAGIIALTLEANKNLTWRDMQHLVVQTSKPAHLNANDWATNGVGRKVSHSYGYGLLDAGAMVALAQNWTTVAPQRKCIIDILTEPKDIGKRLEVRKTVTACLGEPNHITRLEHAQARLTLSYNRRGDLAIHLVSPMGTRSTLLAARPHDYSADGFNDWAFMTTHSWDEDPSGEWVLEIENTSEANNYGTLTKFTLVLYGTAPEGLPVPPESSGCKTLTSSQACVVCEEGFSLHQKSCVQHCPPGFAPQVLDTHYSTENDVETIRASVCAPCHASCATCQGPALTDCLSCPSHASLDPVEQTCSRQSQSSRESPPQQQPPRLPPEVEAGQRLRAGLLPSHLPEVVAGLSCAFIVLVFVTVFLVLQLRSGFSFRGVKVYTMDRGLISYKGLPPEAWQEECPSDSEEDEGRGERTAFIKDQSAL
The list shows a part of the results. How many sequences the whole screen found active is unknown.
Property: furin cleavage Z-score; scope: individual sequences

Below, 4 sequences whose answers are already recorded.
- CATWAQPGYPAGNASASA [HC198]: -0.244 (inactive)
- CAPFDLLDFNAGNASASA [CS3]: -0.762 (inactive)
- CASLTPCTCGAGNASASA [HC720]: -1.42 (inactive)
- CALHCPTDCFAGNASASA [HC450]: 0.987 (inactive)

Lab note: measured furin cleavage Z-score of CAEVVTSTWCAGNASASA [HC2260] was -0.517 (inactive)

Cited source: the supplement of paper PMC3545927
